Cited source: patent US20110009381A1

- measured target: SIRT1 (Homo sapiens, UniProt Q96EB6)
- Sequence (Q96EB6 whole entry): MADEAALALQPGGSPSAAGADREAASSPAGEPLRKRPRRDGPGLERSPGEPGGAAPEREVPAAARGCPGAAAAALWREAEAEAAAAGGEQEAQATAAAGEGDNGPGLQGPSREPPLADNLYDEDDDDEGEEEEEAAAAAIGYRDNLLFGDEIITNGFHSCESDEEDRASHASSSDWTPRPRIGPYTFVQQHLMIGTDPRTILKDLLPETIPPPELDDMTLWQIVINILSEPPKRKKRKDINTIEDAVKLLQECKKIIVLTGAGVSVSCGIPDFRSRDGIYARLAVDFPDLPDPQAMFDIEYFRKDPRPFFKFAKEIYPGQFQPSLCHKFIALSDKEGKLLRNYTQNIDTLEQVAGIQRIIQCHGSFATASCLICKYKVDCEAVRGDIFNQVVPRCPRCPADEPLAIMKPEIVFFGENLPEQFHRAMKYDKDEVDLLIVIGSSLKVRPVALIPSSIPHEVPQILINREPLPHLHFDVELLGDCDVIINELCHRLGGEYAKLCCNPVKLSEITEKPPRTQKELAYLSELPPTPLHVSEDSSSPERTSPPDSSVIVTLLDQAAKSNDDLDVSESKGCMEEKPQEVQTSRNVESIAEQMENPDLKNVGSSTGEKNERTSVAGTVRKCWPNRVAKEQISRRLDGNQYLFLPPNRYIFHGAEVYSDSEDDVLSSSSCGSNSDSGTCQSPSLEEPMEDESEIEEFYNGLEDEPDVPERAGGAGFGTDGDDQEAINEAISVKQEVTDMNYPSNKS
- protocol description: Mass spectrometry based assay to identify modulators of SIRT1 activity (deacetylation of p53-based acetylated peptide substrate)
- Format: biochemical
- measurement setup: SIRT1 activation; 10 nM SIRT1, 0.5 μM peptide substrate, 120 μM βNAD+, 25 minutes at 25° C.
property measured: EC1.5

1) O=C(Nc1ccccc1-c1nc2cccnc2s1)c1cc(N[C@@H]2CCCNC2)nc(-c2ccccc2)n1; A′ (EC1.5<250 nM)
2) CNc1cc(C(=O)Nc2ccccc2-c2nc3cccnc3s2)nc(-c2ccccc2)n1; C (EC1.5>10 uM)
3) COCCN1CCN(c2cc(C(=O)Nc3ccccc3-c3nc4ccncc4s3)nc(-c3ccccc3)n2)CC1; A′ (EC1.5<250 nM)
4) CN(C)c1cc(C(=O)Nc2ccccc2-c2nc3cccnc3s2)nc(-c2ccccc2)n1; B (EC1.5>1 and ≦10 uM)
5) Cc1nc(NCCN(C)C)cc(C(=O)Nc2ccccc2-c2nc3cccnc3s2)n1; B (EC1.5>1 and ≦10 uM)
6) CN1CCC(Nc2cc(C(=O)Nc3ccccc3-c3nc4cccnc4s3)nc(-c3ccccc3)n2)CC1; A′ (EC1.5<250 nM)

Fill blank: measured EC1.5 of the molecule NCCCNc1cc(C(=O)Nc2ccccc2-c2nc3cccnc3s2)nc(-c2ccccc2)n1 is ____.
A′ (EC1.5<250 nM)

Lookup O=C(Nc1ccccc1-c1nc2cccnc2s1)c1cc(N2CCNCC2)cc(-c2ccccc2)n1
A′ (EC1.5<250 nM)

Proceed to O=C(Nc1ccccc1-c1nc2cccnc2s1)c1cc(N2CCNCC2)nc(-c2ccccc2)n1
A′ (EC1.5<250 nM)

CN(C)CCNc1cc(C(=O)Nc2ccccc2-c2nc3cccnc3s2)ncn1 , same question.
B (EC1.5>1 and ≦10 uM)

Now try Cc1cccc(-c2nc(NCCN3CCOCC3)cc(C(=O)Nc3ccccc3-c3nc4cccnc4s3)n2)c1 .
A′ (EC1.5<250 nM)

And what about the molecule O=C(Nc1ccccc1-c1nc2cccnc2s1)c1cc(NC2CCCC2)nc(-c2ccccc2)n1 ?
C (EC1.5>10 uM)

Also, CC(C)CN1CCC(Nc2cc(C(=O)Nc3ccccc3-c3nc4cccnc4s3)nc(-c3ccccc3)n2)CC1 please.
A′ (EC1.5<250 nM)

For O=C(Nc1ccccc1-c1nc2cccnc2s1)c1cc(NC[C@H](O)CO)nc(-c2ccccc2)n1 then?
A′ (EC1.5<250 nM)
